System: MCF7 breast
Experiment: NCI-60 one-dose screen, 48 h
Details: 10 µM unless noted
The panel holds about 83,000 compounds, 20% with a hit somewhere; the sample as a whole holds those more often. Calls of active or inactive are those of the source. How the source made its calls: active means growth percent below 10; inactive means the rest.
Outcomes: active, inactive

>>> print(df.to_string())
                                   compound  category_label
0  O=C(/C=C/c1cccc(Cl)c1Cl)Nc1ncc(Cc2ccccc2Cl)s1        inactive
1  CN1CCN(CCOc2ccc(-c3cnc4c(-c5ccc(F)cc5)cnn4c3)cc2)CC1        inactive
2  Cn1c2c(c3ccc(Cl)c(Cl)c31)C(C#N)C(C)(C)NC2=O (stereo not given)        inactive
3  C=C(C)[C@@H]1CC[C@]2(C)[C@H](CC=C3[C@@H]4CC(C)(C)CC[C@]4(CO)CC[C@]32C)[C@@]1(C)CCCN          active
4  CC[N+]1(CC)CC[N+]2(CCCC(C)CC2)CC1 (stereo not given)        inactive

###

This section presents compounds with their documented growth values.
Test system: HCT-116 colon
Assay: NCI-60 one-dose screen, 48 h (100 = growth as untreated, 0 = no growth, -100 = all killed)
Conditions: 10 µM unless noted
About 83,000 compounds went through this panel and 20% of them were active in at least one assay; those are over-represented in the sample as a whole.
parameter.measured: growth (%)

>>> print(df.to_string())
                                   compound  reported
0  O=C(NC1CC(F)C1)c1cc2cccnc2n1-c1ccc(Cl)c(Cl)c1 (stereo not given)      94.7
1  O=C1/C(=C2\SC(=S)N(C3CC3)C2=O)SC(=S)N1C1CC1       100
2  O=C(O)c1cn(C2CC2)c2cc(N3CCN(C(=O)Nc4nc(-c5ccc(Br)cc5)cs4)CC3)c(F)cc2c1=O      18.5
3  COC(=O)C(Cc1ccccc1)NC(=O)c1ccc(NC(=O)c2[nH]c(C)c(Cl)c2Cl)c(OC(C)C)c1 (stereo not given)     0.768
4               CSC(SC)=C(C#N)c1nc2ccccc2s1      14.2

###

This section presents compounds with their documented growth values.
Test system: A549/ATCC NSCLC
Experiment: NCI-60 one-dose screen, 48 h (100 = growth as untreated, 0 = no growth, -100 = all killed)
Details: 10 µM unless noted
The panel holds about 83,000 compounds, 20% with a hit somewhere; the sample as a whole holds those more often. The source made the active and inactive calls. The calls were made as follows: active = growth percent below 10; inactive = the rest.

smiles	growth
CCN(CC)Cc1cc(Nc2ccnc3cc(Cl)ccc23)ccc1O	107% (inactive)
O=C1c2ccccc2C(=O)C1c1ccc(Br)cc1	108% (inactive)
C=C(c1ccc(OC)c(/C=C/C(=O)c2ccc3c(c2)OCO3)c1)c1cc(OC)c(OC)c(OC)c1	27.3% (inactive)
O=S(=O)(NCCNc1nccc(-c2c(-c3ccc(F)c(O)c3)nc3sccn23)n1)c1ccc(F)cc1	26.9% (inactive)
O=c1cc(-c2ccccc2)[nH]c2ncc(-c3ccc(F)cc3)n12	66.2% (inactive)
O=C(CCl)NNc1nccc(Nc2ccc(S(=O)(=O)Nc3ccncc3)cc2)n1	71.5% (inactive)
C#CC#CC#CC#CC#CC#CC#CC#CC[C@@H]1OC[C@@H](COC(=O)O[C@@H](C(=O)O[C@H]2C[C@@]3(O)[C@@H](OC(=O)c4ccccc4)[C@@H]4[C@]5(OC(C)=O)CO[C@@H]5C[C@H](O)[C@@]4(C)C(=O)[C@H](OC(C)=O)C(=C2C)C3(C)C)[C@@H](NC(=O)c2ccccc2)c2ccccc2)O1	94.7% (inactive)
Cc1ccc(C)c2c(C)c(C(=O)Nc3cccc(-n4cccn4)c3)oc12	58.4% [50 µM] (inactive)

###

System: SR leukemia
Test: NCI-60 one-dose screen, 48 h (100 = growth as untreated, 0 = no growth, -100 = all killed)
Settings: 10 µM unless noted
Compounds without any hit were thinned out: in the full panel of roughly 83,000, 20% have a hit.
parameter.measured: growth (%)

compound	endpoint.unit	reported
C[n+]1ccc(CCc2c[nH]c3ccccc23)cc1	%	83.8
COc1ccc(CNc2c3ccccc3nc3ccccc23)c(OC)c1	%	18.1
CCCCNC(=O)c1cc([N+](=O)[O-])cc(C2CCCCC2)c1O	%	84.1
NC1(CO)COC(c2ccccc2)OC1 (stereo unspecified)	%	83.5
Cc1c(Cl)cccc1C(=O)Nc1nc2c(s1)CN(C(=O)c1ccc(C(F)(F)F)cc1)CC2	%	21.3
CN(C)c1ccc(-c2ccc3c(c2)c(-c2ccccc2)nc(=O)n3C)cn1	%	16.7
O=C1Nc2ccccc2C1(c1c[nH]c2ccccc12)c1c[nH]c2ccccc12	%	77.1
Fc1cccc(-c2ccc3c(c2)C2(CCNCC2)CN3)c1	%	110
N#Cc1ccc(O)c(C2=NCC(Cc3ccccc3)O2)c1 (stereo unspecified)	%	60.8
CC1(C)[C@@H](O[C@@H]2OC[C@@H](O[C@@H]3O[C@H](CO)[C@@H](O)[C@H](O)[C@H]3O[C@@H]3OC[C@@H](O)[C@H](O)[C@H]3O)[C@H](O)[C@H]2O[C@@H]2O[C@H](CO)[C@@H](O)[C@H](O)[C@H]2O)CC[C@]2(C)[C@H]3CC[C@]45OC[C@@]6(CC[C@](C)(C=O)C[C@H]64)[C@H](O)C[C@@]5(C)[C@]3(C)CC[C@@H]12	%	-37
Cc1ccc2nc(-c3ccc(C(=O)NNC(=S)Nc4ccccc4)cc3)[nH]c2c1	%	88.6
CCOC(=O)C1=C(C)/C(=C\c2[nH]c(C)c(C(=O)OCC)c2C)N=C1C	%	11.9
Cc1ccc(-c2nc(/C=C3/C(=O)Nc4ccc(F)cc43)c3ccccn23)cc1	%	58
C[C@H](CCCC(=O)NCC#CCN1CCN(C)CC1)[C@H]1CC[C@H]2[C@@H]3CC[C@@H]4CC(=O)CC[C@]4(C)[C@H]3CC[C@]12C	%	48.3
O=C(Cn1nnc2ccccc21)N/N=C/c1c[nH]c2ccccc12	%	18.3
CCN(CC)c1ccc(/C=N/NC(=O)Cc2ccc(Nc3ccnc(C(F)(F)F)c3)cc2)c(O)c1	%	19.7
COc1ccc(/C(C)=C(/c2ccc(OCCCN(C)C)cc2)c2ccc(OC(=O)c3ccccc3)cc2)cc1	%	9.15
CC/C(Cc1ccccc1)=C(\c1ccc(OCCCN(C)C)cc1)c1ccc(OC(=O)NCc2ccccc2)cc1	%	-22
O=S(=O)(NCCNc1nccc(-c2c(-c3cccc(O)c3)nc3occn23)n1)c1ccc(Br)cc1	%	7.33
Cc1ccc(N2C(=O)CCC2=O)cc1	%	104
CC(=O)OC(c1ccccc1)C1CCOC1=O (stereo unspecified)	%	122
Fc1ccc2[nH]cc(-c3nc(-c4c[nH]c5ccncc45)cs3)c2c1	%	-6.91
COc1ccc2[nH]cc(-c3nc(-c4c[nH]c5c(Cl)nccc45)cs3)c2c1	%	18.1
CCN1CCN(c2cc(C)nc(N(CCNc3ccnc4cc(Cl)ccc34)Cc3ccc4c(c3)OCO4)n2)CC1	%	-44.9
N#C/C(=C\c1cn(Cc2ccccc2)c2ccccc12)C(=O)Nc1ncc(Cc2ccccc2Cl)s1	%	8.65
COc1ccc(-c2nc(/C=C3\C(=O)N(C)c4ccccc43)c3ccccn23)cc1	%	-7.02
COc1ccc(/C=C(/C(=O)n2cnnn2)c2cc(OC)c(OC)c(OC)c2)cc1	%	14.8
CC1(C)CC2=C3C=C[C@@H]4[C@@]5(C)CCC(=O)C(C)(C)[C@@H]5CC[C@@]4(C)[C@]3(C)CC[C@@]2(C(=O)O)C[C@H]1O	%	24.4
CNC(C)[C@H]1CCC2C3CC=C4C(=O)[C@@H](NC(=O)C=C(C)C)CC[C@]4(C)C3CC[C@@]21C (stereo partly specified)	%	-49.7
CN(CCCNC(=O)CCOCCOCCOCCNC(=O)Cc1ccc2ccc3cccc4ccc1c2c34)CCCNc1cc(-c2ccc3ccccc3c2)nc2ccccc12	%	-74.8
CSc1nc(C)c([N+](=O)[O-])c(N)n1	%	96.3
C=C(CNCCc1ccc(O)cc1)[C@@H]1CC[C@]2(CO)CC[C@]3(C)[C@H](CC[C@@H]4[C@@]5(C)CCC(=O)C(C)(C)[C@@H]5CC[C@]43C)[C@@H]12	%	-24.9
COc1ccccc1N(C(C)=O)C1=C(Cl)C(=O)c2ccccc2C1=O	%	-13.9
CN1CCN(C(=O)[C@@]2(C)CC[C@]3(C)CC[C@]4(C)C(=CC[C@@H]5[C@@]6(C)CCC(=O)NC(C)(C)[C@@H]6CC[C@]54C)[C@@H]3C2)CC1	%	-10.4
Cc1c2cccnc2c(C)c2c1c1cc(CO)ccc1n2C	%	14.3
COC(=O)/C=C1/SC(=Nc2ccc([N+](=O)[O-])cc2)N(CCc2c[nH]c3ccc(O)cc23)C1=O	%	-22.5
